target: Androgen receptor (Homo sapiens, UniProt P10275); assay: Displacement of [3H]-DHT from human GST fused AR-LBD (627 to 919 amino acids) transfected in Escherichia coli HB 101 after 15 hrs by liquid scintillation counting assay
Sequence (P10275 whole entry, the tested form may be a part): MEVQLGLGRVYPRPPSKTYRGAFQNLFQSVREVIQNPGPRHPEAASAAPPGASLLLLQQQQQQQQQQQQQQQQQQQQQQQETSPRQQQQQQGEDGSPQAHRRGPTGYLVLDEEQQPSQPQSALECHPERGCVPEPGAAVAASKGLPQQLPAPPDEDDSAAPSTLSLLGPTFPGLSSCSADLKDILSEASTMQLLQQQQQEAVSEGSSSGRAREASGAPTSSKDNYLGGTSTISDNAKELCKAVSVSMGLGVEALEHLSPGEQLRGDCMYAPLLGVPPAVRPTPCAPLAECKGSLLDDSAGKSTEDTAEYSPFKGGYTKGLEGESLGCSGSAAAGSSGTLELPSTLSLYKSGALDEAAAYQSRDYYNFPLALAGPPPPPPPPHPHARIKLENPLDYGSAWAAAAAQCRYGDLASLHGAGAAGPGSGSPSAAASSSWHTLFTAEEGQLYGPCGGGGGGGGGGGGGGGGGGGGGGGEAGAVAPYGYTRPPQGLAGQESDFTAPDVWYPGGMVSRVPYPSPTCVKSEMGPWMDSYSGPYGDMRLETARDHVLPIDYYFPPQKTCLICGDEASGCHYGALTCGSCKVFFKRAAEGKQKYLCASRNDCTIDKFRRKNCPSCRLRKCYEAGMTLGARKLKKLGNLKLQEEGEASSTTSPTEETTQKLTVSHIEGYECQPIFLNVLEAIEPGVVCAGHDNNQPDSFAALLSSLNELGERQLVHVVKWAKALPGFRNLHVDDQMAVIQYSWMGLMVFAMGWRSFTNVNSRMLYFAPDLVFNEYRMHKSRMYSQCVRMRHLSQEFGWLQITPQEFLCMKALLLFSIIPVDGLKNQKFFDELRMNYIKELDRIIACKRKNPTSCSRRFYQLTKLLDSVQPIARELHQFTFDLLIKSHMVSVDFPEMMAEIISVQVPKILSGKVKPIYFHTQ
# IC50 values compiled below
MEASURE: IC50 (µM)

1. Cc1cccc(C)c1Cc1n[nH]c(=O)c2ccccc12 84.3
2. O=c1[nH]nc(Cc2c(Cl)ccc(Cl)c2Cl)c2ccccc12 56.7

----------
target: Androgen receptor (Homo sapiens) (UniProt P10275); experiment: Agonist activity at wild type AR expressed in […] SC cells assessed as effect on cell proliferation by WST-8 assay; type: cell-based
Sequence (P10275 whole entry): as the sequence (P10275 whole entry, the tested form may be a part) above
Active and inactive are the calls of the source. The rule behind the calls is not given here.
MEASURE: Activity

1. CCNc1ccc(Cc2n[nH]c(=O)c3ccccc23)cc1 inactive
2. Cc1ccccc1Cc1n[nH]c(=O)c2ccccc12 inactive
3. O=c1[nH]nc(Cc2ccccc2C(F)(F)F)c2ccccc12 inactive
4. CCN(CC)c1ccccc1Cc1n[nH]c(=O)c2ccccc12 inactive
5. CN(C)c1ccc(Cc2n[nH]c(=O)c3ccccc23)cc1 inactive
6. CN(C)c1ccccc1Cc1n[nH]c(=O)c2ccccc12 inactive
7. CS(=O)(=O)Nc1ccc(Cc2n[nH]c(=O)c3ccccc23)cc1 inactive
8. O=[N+]([O-])c1ccc(Cc2nnc(O)c3ccccc23)cc1 inactive
9. CCNc1ccccc1Cc1n[nH]c(=O)c2ccccc12 inactive
10. Oc1nnc(Cc2ccccc2Cl)c2ccccc12 inactive
11. O=C(Nc1ccc(Cc2n[nH]c(=O)c3ccccc23)cc1)C(F)(F)F inactive
12. Nc1ccccc1Cc1n[nH]c(=O)c2ccccc12 inactive
